Tested on: TLK2
condition_context: concentration: 1 μM, replicates: in singlicate; n = 1;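 note: KINOMEscan kinase panel screen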
Entries and their %Inh values follow.

compound: Cc1ccc(C)c(NC(=O)Nc2ccc(C)c(-c3ccc(C(=O)Nc4ccncc4)cc3)c2)c1 [GSK1398473]
%Inh / %: 0
--
compound: O=C(Nc1n[nH]c2nc(-c3ccccc3O)ccc12)C1CC1 [SB-711880]
%Inh / %: 0
--
compound: CCn1cnc2c(NCc3ccccc3)ncnc21 [SKF-96418]
%Inh / %: 1
--
compound: CN1CCN(Cc2ccc(NC(=O)Nc3ccc(N(C)c4ccnc(Nc5ccc(CS(C)(=O)=O)cc5)n4)cc3)cc2)CC1.Cl [GW827654]
%Inh / %: 0
--
compound: Nc1cccc(-c2ccc3c(N)n[nH]c3c2)c1 [GSK2193613]
%Inh / %: 0
--
compound: c1ccc(Oc2ccc(Nc3ccnc4cc(-c5ccc(CN6CCCCC6)o5)ccc34)cc2)nc1 [GW567143]
%Inh / %: 0
--
compound: N#Cc1cnc2cc(-c3cnc(CNCCN4CCOCC4)s3)ccc2c1Nc1ccc(Oc2ccccc2)cc1 [GW664114]
%Inh / %: 11
--
compound: COC(=O)Nc1nc2cc(Oc3ccc(NC(=O)Nc4cccc(SC)c4)cc3)ccc2[nH]1.Cl [GW697999]
%Inh / %: 0
--
compound: Cc1ccc(O)cc1Nc1ccnc2ccc(C(C)(C)C)cc12 [GW856805]
%Inh / %: 31
--
compound: CCNc1nccc(-c2c(-c3ccc(F)cc3)ncn2C2CCN(C)CC2)n1
%Inh / %: 0
--
compound: CN(c1ccc2c(c1)nc(NCc1ccccc1)n2C)c1ccnc(Nc2ccc(CS(C)(=O)=O)cc2)n1.Cl [GW811603]
%Inh / %: 0
--
compound: COc1cc(Nc2nccc(N3CCC(NC(=O)Nc4ccc5c(c4)OCO5)C3)n2)cc(OC)c1OC (stereo not drawn) [GSK1379766]
%Inh / %: 0
--
compound: O=C(O)C(F)(F)F.O=c1[nH]ccc2nc(N[C@@H]3CCNC3)nc(Nc3ccc4c(c3)S(=O)(=O)CC4)c12 [GSK2181306]
%Inh / %: 98.5
--
compound: Cc1ccc(O)cc1Nc1ccnc2cc(-c3ccc(CN4CCCCC4)o3)ccc12 [GW557777]
%Inh / %: 5
--
compound: Cl.Cl.NC(CNC(=O)c1cc(Br)c(-c2ccnc3[nH]ccc23)s1)c1ccccc1 (stereo not drawn) [GSK1322949]
%Inh / %: 12
--
compound: Cl.O=C(Nc1ccc(Oc2ccc3[nH]c(NC(=O)c4ccco4)nc3c2)cc1)Nc1cc(C(F)(F)F)ccc1F [GW683134]
%Inh / %: 3
--
compound: O=C(Nc1n[nH]c2nc(-c3cccc(O)c3)ccc12)C1CC1 [SB-711805]
%Inh / %: 100
--
compound: CS(=O)(=O)c1cccc(CNc2nc(Nc3ccc4c(c3)CCC(=O)N4)ncc2C(F)(F)F)c1
%Inh / %: 0
--
compound: O=C(O)C(F)(F)F.O=c1[nH]ccc2nc(N[C@@H]3CCNC3)nc(Nc3cc(Cl)cc(Cl)c3)c12 [GSK2188764]
%Inh / %: 73
--
compound: CCn1c(-c2nonc2N)nc2c(-c3ccccc3)ncc(OCCCN)c21.O=C(O)C(F)(F)F.O=C(O)C(F)(F)F [GSK260205]
%Inh / %: 0
--
compound: NCCC(NC(=O)c1cc(Br)c(-c2ccnc3[nH]ccc23)s1)c1ccccc1.O=C(O)C(F)(F)F.O=C(O)C(F)(F)F (stereo not drawn) [GSK1307810]
%Inh / %: 0
--
compound: Cl.N#CCc1ccc(Nc2nccc(Nc3ccc(Oc4ccccc4)cc3)n2)cc1 [GW639905]
%Inh / %: 0
--
compound: CSc1ccc(NC2=C(c3ccc(Cl)cc3)C(=O)NC2=O)cc1 [SB-317658]
%Inh / %: 18
--
compound: CN(C)CCOc1ccc(-c2cc(-c3ccc(Cl)c(O)c3)c(-c3ccncc3)[nH]2)cc1.Cl.Cl [SB-684387]
%Inh / %: 7
--
compound: O=C1NC(=O)C(c2ccccc2Cl)=C1Nc1cccc(Cl)c1 [SB-342409]
%Inh / %: 50
--
compound: Cc1ccc(Nc2ccnc(Nc3ccc(C)c(F)c3)n2)cc1O.Cl [GW582868]
%Inh / %: 0
--
compound: Cc1ccc(NC(=O)c2ccc(Cl)c(Cl)c2)cc1-c1ccc(C(=O)Nc2ccncc2)cc1 [GSK1398460]
%Inh / %: 6
--
compound: COC(=O)Nc1nc2ccc(Oc3ccc(NC(=O)Nc4cc(C(F)(F)F)ccc4F)cc3)cc2[nH]1.Cl [GW654607]
%Inh / %: 4
--
compound: CC(=O)Nc1cn2nc(Oc3cccc(NC(=O)c4cccc(C(F)(F)F)c4)c3)ccc2n1
%Inh / %: 0
--
compound: Cc1cccc(Nc2nc(NCCN)ncc2C(N)=O)c1 [GSK1292139]
%Inh / %: 17
--
compound: Cn1cc(-c2cnc(N)c3c(-c4ccc5c(c4)CCN5C(=O)Cc4ccccc4)csc23)cn1 [GSK2593074]
%Inh / %: 5
--
compound: Cc1ccc(NC(=O)c2cccc(N3CCCCC3)c2)cc1-c1ccc(C(=O)NCC2CC2)cc1 [GSK1917008]
%Inh / %: 0
--
compound: CCOc1nccc(-c2c(-c3ccc(F)cc3)ncn2C2CCNCC2)n1 [SB-249175]
%Inh / %: 15

---

Tested on: CSNK2A2
condition_context: concentration: 1 μM, replicates: in singlicate; n = 1
Kindly return 1 if reported %Inh is no lower than 7%; return 0 if it is lower.

molecule: COc1cc(Nc2ccnc3cc(-c4ccncc4)ccc23)cc(OC)c1OC.Cl
label: 0
--
molecule: COc1cccc2c(-c3ccncc3)c(-c3ccc(F)cc3)nn12
label: 1
--
molecule: O=C(Nc1n[nH]c2cc(-c3cccs3)ccc12)C1CC1
label: 1
--
molecule: COc1ccc(C)c(Nc2ccnc(Nc3ccc(-c4cnc[nH]4)cc3)n2)c1.Cl
label: 0
--
molecule: Nc1cccc(-c2ccc3c(N)n[nH]c3c2)c1
label: 1
--
molecule: Cl.Cl.NCC(NC(=O)c1cc(-c2cccnc2)c(-c2ccnc3[nH]ccc23)s1)c1ccccc1 (stereo not shown)
label: 1
--
molecule: Cc1ccccc1CC(=O)N1CCc2cc(-c3cn(C)c4ncnc(N)c34)ccc21
label: 1
--
molecule: Cn1cc(-c2ccc3c(c2)CCN3C(=O)Cc2cc(F)cc(C(F)(F)F)c2)c2c(N)ncnc21
label: 0
--
molecule: Cc1cccc(Nc2nc(NCCN)ncc2C(N)=O)c1
label: 1

---

Entries and their %Inh values follow.
Test system: S6K1
condition_context: concentration: 1 μM, replicates: in singlicate; n = 1
measured_metric: %Inh (%)

smiles: COc1cccc2c(-c3ccncc3)c(-c3ccc(F)cc3)nn12
reading: 3
//
smiles: O=C(O)C(F)(F)F.O=c1[nH]ccc2nc(N[C@@H]3CCNC3)nc(Nc3ccc4c(c3)S(=O)(=O)CC4)c12
reading: 92.7
//
smiles: CNc1nccc(-c2ccc3c(N)n[nH]c3c2)n1
reading: 0
//
smiles: Nc1ncc(-c2cn[nH]c2)c2scc(-c3ccc4c(c3)CCN4C(=O)Cc3ccccc3)c12
reading: 8

---

Tested on: NEK6
condition_context: concentration: 1 μM, replicates: in singlicate; n = 1
Kindly return label 1 if reported %Inh is no lower than 3%; return label 0 if it is lower.

compound: O=C(Nc1n[nH]c2nc(-c3ccccc3)ccc12)C1CC1
study_target: NEK6
label: label 1
//
compound: Cl.Cl.NCC(NC(=O)c1cc(-c2cccnc2)c(-c2ccnc3[nH]ccc23)s1)c1ccccc1 (stereo not drawn)
study_target: NEK6
label: label 1
//
compound: COc1cccc2c(-c3ccncc3)c(-c3ccc(F)cc3)nn12
study_target: NEK6
label: label 0
//
compound: COc1cccc(C2=C(Nc3cccc(O)c3)C(=O)NC2=O)c1
study_target: NEK6
label: label 0
//
compound: COc1ccc(NC(=O)c2ccoc2)cc1-c1ccc(C(=O)NCC2CC2)cc1
study_target: NEK6
label: label 0
//
compound: Fc1cc(Cl)ccc1Nc1ccnc2cc(-c3ccc(CN4CCOCC4)o3)ccc12
study_target: NEK6
label: label 0
//
compound: CN(c1ccc2c(c1)nc(NCc1ccccc1)n2C)c1ccnc(Nc2ccc(CS(C)(=O)=O)cc2)n1.Cl
study_target: NEK6
label: label 1
//
compound: COc1cc(Nc2nccc(N3CCC(NC(=O)Nc4ccc5c(c4)OCO5)C3)n2)cc(OC)c1OC (stereo not drawn)
study_target: NEK6
label: label 1

---

Test system: MYO3B
condition_context: concentration: 1 μM, replicates: in singlicate; n = 1

compound: O=C(Nc1n[nH]c2nc(-c3ccccc3O)ccc12)C1CC1
study_target: MYO3B
%Inh, %: 1
--
compound: Nc1cccc(-c2ccc3c(N)n[nH]c3c2)c1
study_target: MYO3B
%Inh, %: 0
--
compound: CN(c1ccc(NC(=O)N2CCN(CCCN3CCOCC3)CC2)cc1)c1ccnc(Nc2ccc(CS(C)(=O)=O)cc2)n1.Cl
study_target: MYO3B
%Inh, %: 0
--
compound: COc1ccc(C2=C(Nc3cccc(O)c3)C(=O)NC2=O)cc1
study_target: MYO3B
%Inh, %: 0
--
compound: COc1ccc(C)c(Nc2ccnc(Nc3ccc(-c4cnc[nH]4)cc3)n2)c1.Cl
study_target: MYO3B
%Inh, %: 27
--
compound: CC(C)NCC(Cc1ccccc1)NC(=O)c1cc(Br)c(-c2ccnc3[nH]ccc23)s1.Cl.Cl (centres unmarked)
study_target: MYO3B
%Inh, %: 0
--
compound: CC(=O)Nc1cn2nc(Oc3cccc(NC(=O)c4cccc(C(F)(F)F)c4)c3)ccc2n1
study_target: MYO3B
%Inh, %: 9
--
compound: COc1cccc(CC(=O)N2CCc3cc(-c4cn(C)c5ncnc(N)c45)ccc32)c1
study_target: MYO3B
%Inh, %: 18
--
compound: CN(c1ccc(F)c(NC(=O)c2cccc(OC(C)(C)C#N)c2Cl)c1)c1ccc2nc(NC(=O)C3CC3)sc2n1
study_target: MYO3B
%Inh, %: 0
--
compound: Cc1cccc(Nc2nc(N[C@H]3CCCC[C@H]3N)ncc2C(N)=O)c1.Cl
study_target: MYO3B
%Inh, %: 0
--
compound: O=C1NC(=O)C(c2ccccc2Cl)=C1Nc1cccc(Cl)c1
study_target: MYO3B
%Inh, %: 3
--
compound: CC(C)c1nc(-c2cccc(NS(=O)(=O)c3c(F)cccc3F)c2)c(-c2ccnc(Nc3ccc(N4CCOCC4)nc3)n2)s1.Cl
study_target: MYO3B
%Inh, %: 47
--
compound: CN(c1ccc(NC(=O)Nc2cccc(Cl)c2)cc1)c1ccnc(N)n1.Cl
study_target: MYO3B
%Inh, %: 36
--
compound: Fc1cc(Cl)ccc1Nc1ccnc2cc(-c3ccc(CN4CCOCC4)o3)ccc12
study_target: MYO3B
%Inh, %: 1
--
compound: Cc1ccc(-c2ccc3occ(-c4ccc(S(C)=O)cc4)c3c2)nn1 (centres unmarked)
study_target: MYO3B
%Inh, %: 1
--
compound: Cc1ccc(C)c(NC(=O)Nc2ccc(C)c(-c3ccc(C(=O)Nc4ccncc4)cc3)c2)c1
study_target: MYO3B
%Inh, %: 0
--
compound: O=C(O)C(F)(F)F.O=c1[nH]ccc2nc(N[C@@H]3CCNC3)nc(Nc3ccc4c(c3)S(=O)(=O)CC4)c12
study_target: MYO3B
%Inh, %: 4
